system: P388 leukemia ip, CD2F1 mice, survival T/C; assay: NCI In Vivo Anticancer Drug Screen. Data for tumor model P388 Leukemia (intraperitoneal) in CD2F1 (CDF1) mice; conditions: endpoint: median survival time; dose: 25.0 mg/kg/injection; schedule: Q04DX003 (ip); vehicle: water; higher = longer survival
Inconclusive results and toxic doses are left out.
Reported values of T/C for individual entries

| COMPOUND | SYSTEM | REPORTED VALUE |
| --- | --- | --- |
| CN(C)CCCNc1cc(O)c2c(c1O)C(=O)c1ccccc1C2=O | P388 leukemia ip, CD2F1 mice, survival T/C | 100 % of control |

Recorded T/C of OCC1OC(n2ccn(C3OC(CO)C(O)C3O)c2=S)C(O)C1O (stereo not given) , please.
103 % of control

Using the record for COc1ccc2c(c1O)-c1cc(O)cc3c1C(C2)N(C(=O)CN(CCCl)CCCl)CC3 (stereo not given) , report its T/C.
116 % of control

What does the data say about its T/C? Entry: COc1cccc2c1C(=O)c1c(O)c3c(c(O)c1C2=O)C[C@@](O)(/C=N\O)C[C@@H]3OC1CC(N)C(O)C(C)O1 (stereo not given in full)
111 % of control

Which T/C value is on record for COc1cccc2c1C(=O)c1c(O)c3c(c(O)c1C2=O)C[C@@](O)(C(O)CO)C[C@@H]3OC1CC(N(Cc2ccccc2)Cc2ccccc2)C(O)C(C)O1 (stereo not given in full) ?
100 % of control

###

tested on: P388 leukemia ip, CD2F1 mice, survival T/C; experiment: NCI In Vivo Anticancer Drug Screen. Data for tumor model P388 Leukemia (intraperitoneal) in CD2F1 (CDF1) mice; conditions: endpoint: median survival time; dose: 25.0 mg/kg/injection; schedule: Q01DX009 (ip); vehicle: Klucel (hydroxypropylcellulose) (HPC); higher = longer survival
Toxic doses and inconclusive results are not listed.
Reported values of T/C for individual entries

| COMPOUND | T/C |
| --- | --- |
| C#CCN(C)/N=N/c1nc[nH]c1C(N)=O | 122 % of control |
| CCNc1ccc(/C=C2\C=Cc3ccccc32)cc1 | 110 % of control |
| O=[N+]([O-])c1cccnc1S(=O)(=O)c1ncccn1 | 96 % of control |
| CNCCNc1ccc(C)c2sc3ccc(O)cc3c(=O)c12 | 95 % of control |
| CCOC(=O)C1=C(C)NC(C)=C(C(=O)OCC)C1c1ccc(OC)cc1 | 94 % of control |

I would be grateful if you could share the reported T/C for "O=C(/C=C/c1ccccc1)c1ccccc1" .
105 % of control

Need T/C of N#CSc1ccc2nc(NC(NC(=O)c3ccccc3)C(Cl)(Cl)Cl)sc2c1 (stereo not drawn) , thanks.
101 % of control

Fill blank: measured T/C of the compound CCN1CC2(C)CCC(OC)C34C5CC6CCC(O)(C5C(=O)O6)C(C(O)C23)C14 (stereo not drawn) is ____.
100 % of control

If you can, please state the reported T/C value of "NC(=O)NC1(C(=O)O)CCCC1" .
102 % of control

Suppose we examine the compound "CCCCOC(=O)C1=NNC(=O)C1" ; what T/C value has been reported?
115 % of control

GET /values?readout=T/C&item= "Nc1nc(N)sc(=S)n1"
100 % of control

Requested field: T/C. Item: "Cc1cccc(Cl)c1NC(=O)CCl"
101 % of control

T/C for "CCN(CC)Cc1c[nH]c2ccccc12" ?
103 % of control

###

test system: P388 leukemia ip, CD2F1 mice, survival T/C; test: NCI In Vivo Anticancer Drug Screen. Data for tumor model P388 Leukemia (intraperitoneal) in CD2F1 (CDF1) mice; details: endpoint: median survival time; dose: 400.0 mg/kg/injection; schedule: Q01DX009 (ip); vehicle: saline with Tween-80; higher = longer survival
Toxic doses and inconclusive results are not listed.
Reported T/C is given for each of the following compounds.

Illustrative cases are given below, each with its answer.
| COMPOUND | T/C |
| --- | --- |
| CON1C(=O)c2ccccc2C1=O | 106 % of control |
| COC(=O)CCC(=O)N(C)CCc1c[nH]c2ccccc12 | 90 % of control |
| COc1cc(Br)cc(C(=O)O)c1OC | 102 % of control |
| COC(=O)c1ccc(SSc2ccc(C(=O)OC)cc2[N+](=O)[O-])c([N+](=O)[O-])c1 | 91 % of control |
| CCOC(=O)C(=CNc1ccccn1)C(=O)OCC | 113 % of control |

// moving on: another record for T/C
For the compound shown here, "O=C(/C=C/C(=O)OCC(Cl)(Cl)Cl)OCC(Cl)(Cl)Cl" , give the reported T/C.
106 % of control

###

test system: P388 leukemia ip, CD2F1 mice, survival T/C; assay: NCI In Vivo Anticancer Drug Screen. Data for tumor model P388 Leukemia (intraperitoneal) in CD2F1 (CDF1) mice; conditions: endpoint: median survival time; dose: 200.0 mg/kg/injection; schedule: Q04DX003 (ip); vehicle: saline; higher = longer survival
Inconclusive results and toxic doses are left out.
Entries and their measured T/C follow.

Please review the entries below; each comes with its answer.
| MOLECULE | REPORTED VALUE |
| --- | --- |
| COC(=O)C(F)C(N)C(=O)O (stereo unspecified) | 103 % of control |
| [O-][N+](O)=C1c2ccccc2-c2ccccc21 | 103 % of control |
| O=C(O)c1c[nH]c2cc(OCCOc3ccc4ccccc4c3)ccc2c1=O | 88 % of control |
| CC1COCCOCCOCC(C)OC(=O)CSCC(=O)O1 (stereo unspecified) | 104 % of control |
| N#CC(C#N)/C=C/[Se]c1ccccc1 | 98 % of control |

// returns reported T/C for input "COc1cc2c(cc1O)-c1c(cnn1-c1ccc([N+](=O)[O-])cc1[N+](=O)[O-])CCC2"
99 % of control

###

Test system: P388 leukemia ip, CD2F1 mice, survival T/C
Test: NCI In Vivo Anticancer Drug Screen. Data for tumor model P388 Leukemia (intraperitoneal) in CD2F1 (CDF1) mice
Details: endpoint: median survival time; dose: 50.0 mg/kg/injection; schedule: Q01DX009 (ip); vehicle: saline; higher = longer survival
Description: The antitumor activity of compounds was measured in mice bearing transplantable tumors. Survival or tumor size were measured and the results are expressed as the measurement made in the treated group (T) divided by the measurement made in the vehicle treated control group (C). The tumor model used in this assay is P388 Leukemia (intraperitoneal) in CD2F1 (CDF1) mice
Inconclusive results and toxic doses are left out.
T/C values for the compounds below.

Recorded results for 7 compounds are shown here.
| COMPOUND | T/C |
| --- | --- |
| C[N+]1(CC2CC2)C2CC(OC(=O)C(CO)c3ccccc3)CC1C1OC12 (stereo not drawn) | 99 % of control |
| Nc1ccc2cc3ccc(N)cc3nc2c1 | 95 % of control |
| CCC(=O)NC(CC(C)C)C(=O)O (stereo not drawn) | 89 % of control |
| COc1cc2cnc(-c3ccc(Cl)c(Cl)c3)c(O)c2cc1OC | 90 % of control |
| CCc1cn[nH]c(=O)c1 | 110 % of control |
| O=C1OC2CS(=O)CC2O1 (stereo not drawn) | 102 % of control |
| C=C(C)n1c(=O)[nH]c2ccccc21 | 87 % of control |

Now let's try a different one.
What value of T/C has been reported for the following compound? "O=C(O)c1c[nH]c2cc([N+](=O)[O-])ccc2c1=O"
104 % of control

###

test system: P388 leukemia ip, CD2F1 mice, survival T/C; assay: NCI In Vivo Anticancer Drug Screen. Data for tumor model P388 Leukemia (intraperitoneal) in CD2F1 (CDF1) mice; conditions: endpoint: median survival time; dose: 15.0 mg/kg/injection; schedule: Q01DX005 (ip); vehicle: saline with Tween-80; higher = longer survival
Inconclusive results and toxic doses are left out.
REPORTED ENDPOINT: T/C

| MOLECULE | T/C |
| --- | --- |
| COc1ccc(N=Nc2c(-c3cccs3)nn(C(=S)SC)c2C(F)(F)F)cc1 | 108 % of control |
| CCn1cc(C(=O)O)c(=O)c2nc(S(C)=O)sc21 (stereo not drawn) | 103 % of control |
| CN(C)c1ccc(/C=N/N=C(/C#N)[S][Sn]([S]/C(C#N)=N/N=C/c2ccc(N(C)C)cc2)([c]2ccccc2)[c]2ccccc2)cc1 | 123 % of control |
| c1ccc(C(NC2=NCCCCCC2)c2ccco2)cc1 (stereo not drawn) | 93 % of control |
| COc1ccc(NC(=O)Nc2ccc(NC(C)=O)cc2)c(OC)c1 | 93 % of control |

Look up T/C for this molecule: "[N-]=[N+]=NC(=O)c1cnn(-c2ccccc2)c1N"
101 % of control

Looking for the measured T/C of "CCOC(=O)N/N=C(\C)c1nc2ccccc2[nH]1" , can you help?
106 % of control

Entry under review: "NS(=O)(=O)c1ccc(Nc2c3ccccc3nc3c([N+](=O)[O-])cccc23)cc1" . Reported T/C?
97 % of control

All figures here come from PubChem BioAssay AID330.
